Listing of entries alongside the reported melting point.
recorded.metric: melting point

{"molecule": "Cc1nc(N2CCN(Cc3ccc(F)cc3)C2=O)sc1C(=O)NCc1ccc(F)cc1", "measured.result": "177 to 178 °C"}
{"molecule": "CC(C)(CNc1ccc(C2=NNC(=O)CC2)cc1)NCC(O)COc1cc(Cl)ccc1C#N (stereo not given)", "measured.result": "160 to 162 °C"}
{"molecule": "COc1ccc2c(=O)c(OS(C)(=O)=O)cn(C)c2c1", "measured.result": "163 °C"}
{"molecule": "CC(C)(C)c1cc(OC[Si](C)(C)Cc2ccccc2)cc(C(C)(C)C)c1O", "measured.result": "76 to 77 °C"}
{"molecule": "CS(=O)c1nnc(-c2ccc3occ(-c4cccc(OC(F)(F)F)c4)c3c2)o1 (stereo not given)", "measured.result": "98 to 99 °C"}
{"molecule": "Cc1ccc(-c2cc(-c3ccccc3)n[nH]2)cc1", "measured.result": "175 °C"}
{"molecule": "N#Cc1ccccc1OCCc1c[nH]cn1", "measured.result": "170 to 171 °C"}
{"molecule": "CC(=O)c1ccc(NS(=O)(=O)c2sc3ccc(Cl)cc3c2C)c(S(C)(=O)=O)c1", "measured.result": "207 to 209 °C"}
{"molecule": "COC(=O)C12CC(C(=O)OC)(C1)C2", "measured.result": "92 °C"}
{"molecule": "Cc1cc(CCCCCOc2c(Cl)cc(-c3ccco3)cc2Cl)on1", "measured.result": "29 to 30 °C"}
